# protocol.text: yeast display, Sf9 membrane polyspecificity reagent, FACS + sequencing; frameworks hold sequencing errors
parameter: polyreactivity (PSR sort gate)

| chain.sequence | parameter | result.value |
| --- | --- | --- |
| QVQLVESGGGLVQAGGSLRISCAASGSIFPTYAMGWYRQAPGKERELVAAISGSGGSTYYADSVKGRFTISRDNAKNTVYFQINSLKPEDTAVYYCAVRRRRYHTYYRGYDNWGQGTQVTVSA | polyreactivity (PSR sort gate) | low polyreactivity |
| QVQLVESGGGLVQAGGSLRLSCAASGITFRQYAMGWYRQAPGKERELVAVITSRGGTTYYADSVKGRFTISRDNAKNTVYLQMNSLKPEDTAVYYCAKVYGFPYYRAYFPERRNGYWGQGTQVTVSS | polyreactivity (PSR sort gate) | high polyreactivity |
| QVQLQESGGGLVQAGGSLLSCAASGTISSYREMGWYRQAPGKELELVAGIGVGTITYYADSVKGRFTISRDNAKNTVYLQMNSLKPEDTAVYYCAAHIDGNDSHAYWGQGTQVTVSS | polyreactivity (PSR sort gate) | low polyreactivity |
| QVQLVESGGGLVQAGGSLRLSCAASARIFDTYAMGWYRQAPGKETELVDSISIDGSTYYADSVKGRFTISRDNAKNTVYLQMNSLKPEDTAVYYCNADGRYYTVRFEYWGQGTQVTVSS | polyreactivity (PSR sort gate) | low polyreactivity |
| QVQLVESGGGLVQAGGSLRLSCAASGRIFYNYAMGWYRPAPGKDRVLVAAISVSGGSTYYADSEKGRFTISRDNAKNTVYLQMNSLKPEDTAVYYCAARRDRGYTREYWGQGTQVTVST | polyreactivity (PSR sort gate) | high polyreactivity |

====

# protocol.text: yeast display, Sf9 membrane polyspecificity reagent, FACS + sequencing; frameworks hold sequencing errors

| chain.sequence | polyreactivity (PSR sort gate) |
| --- | --- |
| QVQLVETGGGLVQAGGSLRLSCAASGYTFRYYAMGWYRQAPGKERELVAAISRRGGSTSYADSVKGRFTISRDNAKNTVYLQMNSLKPEDTAVYYCAVYLGGVSPTYGYWGQGTQVTVSS | high polyreactivity |
| QVQLVESGGGLVQAGGSLRLSCASSGFTFFRNAMGWYRQAPGKERELVAAISGSGGRTYYADSVKGRFTISRDNAKNTVYLQMNSLKLEDTAVYYCAAVPVDPGYDYWGQVTQVTVSS | high polyreactivity |

====

# protocol.text: yeast display, Sf9 membrane polyspecificity reagent, FACS + sequencing; frameworks hold sequencing errors
parameter: polyreactivity (PSR sort gate)

| chain.sequence | result.value |
| --- | --- |
| QVQLVESGGGLVQAGGSLRLSCAASGLISTPNAMGWSRQAPGKERELVASISSRGGSTYYADSVKGRFTISRDNAKNTVYLQMNSLKPEDTAVYYCAADAYRDFYYEYYYWGQGSQVTVSS | low polyreactivity |
| QVQLVESGGGLVQAGGSLRLSCAASGIIFTSNTMGWYRQAPGKVREFVASINWNGSSTYADSVKGRFTISRDNAKYTVYLQMNSLKPEDTAVYSCNADYNRNSVQFSLYDYWGQGTQVTVSS | low polyreactivity |

====

# protocol.text: yeast display, Sf9 membrane polyspecificity reagent, FACS + sequencing; frameworks hold sequencing errors
parameter: polyreactivity (PSR sort gate)

| chain.sequence | result.value |
| --- | --- |
| QVQLQESGGGMVQAGGSLRLSCASSGYISWADYMGWSRQAPGKERELVDGIGYGSTTYYADSVKGRFNISRDNAKNTAYLQMISLKPEDTAVYYCAVGWYSVTAYNYWGQGTQVTVSS | low polyreactivity |
| QVQLVESGGGLVQAGGSLRLSCAAAGRTFYPYVMGWYRQAPGKERELVATISWSGGSTYYADSVKGRFTISRDNAKNSVYLQMNSLKPEDTAVYYCAALWPYGYWGQGTQVTVSS | low polyreactivity |
| QVQLVESGGGLVQAGRSLRLSCAASGSIFTHNAMGWYRQAPGKERELVASITSRGGITYYADSVKGRFTISRDNAKNTVYLQMNSLKPEDTAVYYCAADLYIYPYDYWGQGTQVTVSS | low polyreactivity |
| QVQLVESGGGLVQAGGSLRLSCAASGSTFKRYAMGWYRQAPAKERELVASISSGGSTNYADSVKGRFTISRDNAKNTVYLQMNSLKPEDTAVYYCNAVYYCYKGDYWGQGTQVTVSS | high polyreactivity |
| QDQLVESGGGLVQAGGSLRLSCAASGFTFYSYAMGWYRQAPGKERELVAAISYRGGSTYYADSVKGRFTISRDNAKNTVYFQMNSLKPEDTAVYYCAARSPSAAYGSYGVYYWGQGTQVTVSS | high polyreactivity |
| QGQLEESGGGLVQAGGSLRLSCAASGRIFRYNTMGWYRQAPGKERELVADITSSDSSTYYADSVKGRFTISRDNAKNTLYLQMNSLKPEDTEVYFCAARDSGYGWRYYYWGHGTQVTVSS | low polyreactivity |
| QVHLVESGGGLVQAGGSHRLSCAASGSISFIYAMGWYIQAPGKERELVAAITSSGGSTYYADSVKGRFTISRDNAQNTVYLQMNSLKPDDTAVYYCAAERWTSRHYSGNDYWGQGTQVTVSS | low polyreactivity |
| QVQLVESGGRLVQAGGSLRLSCAASGRTFYGYAMGWYRQAPGKEREFVAAISVGGGSTYYADSVKGRFTISRDKAKNTVYLQMNSLKPEDTAVYYCAAYTRYWSYGYWGQGTQVTVSS | high polyreactivity |
| QVQLVESGGGLVQAGGSLRLSCAASGYTFYANAMGWYRQAPGKEREFVASITWSGGSTYYADSVKGRFTISRDNAKNTVYLQMNSLKPEDTAVYYCNTDLTYPYPNVEVLVYGFKLDYWGQGTQVTVSS | low polyreactivity |
| QVQLVESGGGLVQAGGSLRLSCAASGNTFNRYAMGWYRQAPGKESELVATISYRGGSTSYADSVKGRFTISRDNAKNTVYLQMNSLKPEDTAVYYCATEEGYVLYKYYSWGQGTQVTVSS | low polyreactivity |
| QVQLVESGGGLVQAGGSLRLSCAASGSIIVRYAMGWYRQAPGKERELVAAISWSGGRTYYADSVKGRFTISRDNAKNTVYLQMNSLKPEDTAVYYCAKRQGGRKYVRYEYDSWGQGTQVTVSS | low polyreactivity |
| QVQLVESGGGLVQAGGSLRLSCATSGSIFVFNAMGWYRQAPGKERELVAAIDTSDDITYYADSVKGRFTISRDNAKNTVYLQMNSLKPEDTAVYYCNAETYGLVPYYIYHYEFDYWGQGTQVTVSS | high polyreactivity |
| QVQRVETGGGLFQAGGSLRLSCAASGRTFGPYAMGWYIQAPGKERELVAAIRYIDDSTFYADSVKGRFTISRDNAKNTVYVQMNSLKPEDTAVYYCAAQRRVVGRHGLSLIRYDYWGQGTQVTVSS | low polyreactivity |
| QVQLVESGGGLVQAGGSLRLSCAASGSTFNGYAMGWSRQAPGKERELVAAISWSSGSTYYADSVKGRFTISRDNAKNTVYLQMNSLKPEDTAVYYCNKYYGYHKIKEYDYWGQGTQVTVSS | high polyreactivity |
| QVQLVESGGGLVQAGGSLRLSCAASGRTFSFYAMGWYRQAPGKERELVAAISRGGGSTYYADSVKGRFTISRDNAKNTVYLQMNSLKPEDTAVYYCAAPFLYRRGYDYWGQGTQVTVSS | high polyreactivity |
| QVQLVESGGGLVQAGGSLRLSCAASGFTFRYNAMGWYRQAPGKERELVAAITWRGGRTYYADSVKGRFTISRDNAKNTVYLQMNSLKPEDTAVYYCAVYRTSTRYVVDSDYWGQGTQVTVSS | low polyreactivity |
| QVQLVESGGGLVQAGGSLRLSCAASGSTFYFNAMGWYRQAPGKERELVAGISSGGSTYYADSVKGRFTISRDNAKNTVYLQMNSLKPEDTAVYYCAADSDTFYYTGYDYDYWGQGTQVTVSS | low polyreactivity |
| QVQLVESGGGLVQAGGSLRLSCAASGITFRSYDMGWYRQAPGTERELVAAISSTGRTYYADSVKGRFTISRDNAKNTVYLQMNSLKPEDTAVYYCARARSHYAYYWWNAGTGLDYWGQGTQVTVSS | high polyreactivity |
| QVQLVESGGGLVQAGGSLRLSCAASGRIFGKYAMGWYRQAPGKERELVAAISVRGGRTFYADSVKGRFTISRDNAKNTVYLQMNSLKPEVTAVYYCAARGADKGSYADVDYWGQGTQVTVSS | low polyreactivity |
| QVQLVESGGGLVQAGGSLRLSCAASGLIFWYYTMGWYRQAPGKERELVAAITIGGSTYYADSVKGRFTISRDNAKNTVYLQMNSLKPEDTAVYYCNTRRGRSQGGRYEYDYWGQGTQVTVSS | low polyreactivity |
| QVQLVESGGGLVQAGGSLRLSCAASGFIIRRYAMGWYRPAPGKERELVARISFRGGSTYYADSVKGRFTISRDNAKNTVYLQMNSLKPEATAVYYCNRDPLYSKVVDGDYWGHGTQVTVSS | high polyreactivity |

Cited source: the nanobody polyreactivity screen of Harvey et al. (2022)
